target_desc: Cytochrome P450 3A4 (Homo sapiens, UniProt P08684)
Sequence (P08684 whole entry): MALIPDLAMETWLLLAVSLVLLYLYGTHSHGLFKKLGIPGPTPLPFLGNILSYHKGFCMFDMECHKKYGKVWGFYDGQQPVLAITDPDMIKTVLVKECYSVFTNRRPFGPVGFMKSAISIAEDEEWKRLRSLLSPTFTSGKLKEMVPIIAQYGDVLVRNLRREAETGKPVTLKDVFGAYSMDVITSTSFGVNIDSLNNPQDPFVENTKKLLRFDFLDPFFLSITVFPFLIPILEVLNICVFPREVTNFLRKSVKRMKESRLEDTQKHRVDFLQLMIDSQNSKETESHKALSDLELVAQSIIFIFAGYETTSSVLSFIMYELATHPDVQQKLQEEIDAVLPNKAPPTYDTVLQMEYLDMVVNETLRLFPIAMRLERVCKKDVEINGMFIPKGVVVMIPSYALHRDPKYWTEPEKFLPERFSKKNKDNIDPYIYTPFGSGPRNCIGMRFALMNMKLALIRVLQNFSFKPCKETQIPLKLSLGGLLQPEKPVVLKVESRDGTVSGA

structure: CCOC[C@@H](CC(C)C)NC(=O)[C@@H]1CNC[C@H](C(=O)N(c2ccc(C(C)C)cn2)C2CC2)[C@@H]1O
target_desc: Cytochrome P450 3A4 (Homo sapiens, UniProt P08684)
IC50: > 30 µM

###

protocol_details: Half life in Sprague-Dawley rat at 2 mg/kg, iv
Assay type: ADME, organism-based
Parameters: dose 2 mg/kg, route intravenous
measurement_context: in vivo
Property: half-life; scope: individual compounds
observed_property: half-life (h)

structure: CCOC[C@@H](CC(C)C)NC(=O)[C@@H]1CNC[C@H](C(=O)N(c2ccc(C(C)C)cn2)C2CC2)C1.O=C(O)/C=C/C(=O)O
recorded_measurement: 6.5

structure: CCOC[C@@H](CC(C)C)NC(=O)[C@@H]1CNC[C@H](C(=O)N(c2cc(OC)c(C(C)C)cn2)C2CC2)C1.O=C(O)C(O)C(O)C(=O)O
recorded_measurement: 7

structure: CCOC[C@@H](CC(C)C)NC(=O)[C@@H]1CNC[C@H](C(=O)N(c2cc(OC)c(C(C)C)cn2)C2CC2)[C@@H]1O
recorded_measurement: 7.7

structure: CCOC[C@@H](CC(C)C)NC(=O)[C@@H]1CNC[C@H](C(=O)N(c2cc3c(cc2F)OC(C)(C)C(=O)N3CCCOC)C2CC2)C1.Cl
recorded_measurement: 1.9

structure: CCOC[C@@H](CC(C)C)NC(=O)[C@@H]1CNC[C@H](C(=O)N(c2cc(OCCCOC)c(C(C)C)cn2)C2CC2)C1.Cl
recorded_measurement: 4.3

structure: CCOC[C@@H](CC(C)C)NC(=O)[C@@H]1CNC[C@H](C(=O)N(c2cc(OCC)c(CC)cn2)C2CC2)C1.O=C(O)C(O)C(O)C(=O)O
recorded_measurement: 7.4

structure: CCOC[C@@H](CC(C)C)NC(=O)[C@@H]1CNC[C@H](C(=O)N(c2cc(OCC)c(CC)cn2)C2CC2)[C@@H]1O.O=C(O)/C=C/C(=O)O
recorded_measurement: 5.9

structure: CCOC[C@@H](CC(C)C)NC(=O)[C@@H]1CNC[C@H](C(=O)N(c2ccc(C(C)C)cn2)C2CC2)[C@@H]1O.O=C(O)CCC(=O)O
recorded_measurement: 6.8
